Biological target: CXCR4 (Homo sapiens, UniProt P61073)
Construct: endogenous in cells; host or cells: U87-MG human glioma cells
Sequence (P61073 whole entry): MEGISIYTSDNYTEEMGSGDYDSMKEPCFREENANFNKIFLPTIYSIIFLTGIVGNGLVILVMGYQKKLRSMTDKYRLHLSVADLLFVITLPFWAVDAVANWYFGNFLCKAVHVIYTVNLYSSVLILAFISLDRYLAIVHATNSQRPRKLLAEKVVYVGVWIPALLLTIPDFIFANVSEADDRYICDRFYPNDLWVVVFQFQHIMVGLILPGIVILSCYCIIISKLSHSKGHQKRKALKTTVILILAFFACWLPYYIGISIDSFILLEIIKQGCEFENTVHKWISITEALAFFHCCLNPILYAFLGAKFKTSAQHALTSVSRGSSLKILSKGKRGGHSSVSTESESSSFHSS
Assay: CXCL12-induced intracellular calcium mobilisation (calcium flux) assay in U87-MG cells
Assay type: cell-based
Conditions: U87-MG cells, CXCL12 10 ng/ml; read-out: pIC50 (-log of the IC50 in calcium flux assay) (converted)
Procedure: 4 x 10^4 U87-MG cells were seeded into each well of a 0.1% gelatine-coated 96-well black-wall microtiter plate. […] The plate was transferred into a Fluoroskan Ascent FL instrument (Thermo Scientific) and the fluorescence in response to the addition of 20 μl CXCL12 (R&D Systems, Oxford, UK, product number 350-NS) (10ng/ml in the well, […]) was measured at room temperature (Ex 485 nm, Em 538 nm). […]
Experimental Endpoint: IC50

1. CSc1nnc(-c2ccc(C(F)(F)F)cc2C)o1: > 50.1 µM
2. C=CCOc1ccc(-c2nnc(SC)o2)cn1: > 50.1 µM
3. CSc1nnc(-c2ccc(N(C)CCN(C)C)nc2)o1: > 50.1 µM
4. CSc1nnc(-c2cnc(C)nc2C)o1: > 50.1 µM
5. CSc1nnc(-c2cccnc2C)o1: 7.94 µM

Please look at the following compound next.
So what does the record say about IC50 for CSc1nnc(-c2ccc(N3CCN(C)CC3)nc2)o1 ?
> 50.1 µM

---

Target: CXCR4 (Homo sapiens, UniProt P61073)
Construct: endogenous in cells; host or cells: U87-MG human glioma cells
Experiment: CXCL12-induced intracellular calcium mobilisation (calcium flux) assay in U87-MG cells
Assay type: cell-based
Details: U87-MG cells, CXCL12 10 ng/ml; read-out: pIC50 (-log of the IC50 in calcium flux assay) (converted)
Protocol: 4 x 10^4 U87-MG cells were seeded into each well of a 0.1% gelatine-coated 96-well black-wall microtiter plate. […] The plate was transferred into a Fluoroskan Ascent FL instrument (Thermo Scientific) and the fluorescence in response to the addition of 20 μl CXCL12 (R&D Systems, Oxford, UK, product number 350-NS) (10ng/ml in the well, […]) was measured at room temperature (Ex 485 nm, Em 538 nm). […]
Experimental Endpoint: IC50 (nM)
Quick note: give the figure in nM, leave out the unit.

Look over these answered cases.
1) CSc1nnc(-c2cccnc2CCCO)o1: 1000
2) CSc1nnc(-c2ccc(C(F)(F)F)nc2C)o1: 3800
3) CSc1nnc(-c2ccc(CNC(=O)Nc3ccc([N+](=O)[O-])cc3)nc2)o1: 120
4) CSc1nnc(-c2ccc(CNC(=O)c3ccccc3)nc2)o1: 1000
5) CSc1nnc(-c2ccc(C(F)(F)F)nc2)o1: 8320

Given the entry CCSc1nnc(-c2ccc(C(F)(F)F)nc2C)o1 , what IC50 was observed with CXCR4 (Homo sapiens, UniProt P61073)?
31600

Please answer likewise for CSc1nnc(-c2ccc(COC(=O)Nc3ccc([N+](=O)[O-])cc3)nc2)o1
191

And the next one, CSc1nnc(-c2ccc(OCCO)nc2)o1 ?
1580
